Test: FRG1 expression reporter modulators in myotubes – cell-based, C2C12 myotubes, firefly/Renilla luciferase, luminescence, FRG1 inhibition for FSHD, primary screen (AID 1084)
Details: FRG1 promoter luciferase, higher = more signal, called active from +8 up or from −8 down
Reported z-score values follow for various molecules

{"MOLECULE": "COc1ccc([Si](C)(C)[C@@H]2[C@@H](CC(=O)N3Cc4ccccc4C[C@H]3CO)O[C@]3(C(=O)N(Cc4cccc(N5CCOC5=O)c4)c4ccccc43)[C@H]2C)cc1", "z-score": -1.64}
{"MOLECULE": "COC(=O)[C@@]1(Cc2ccc(OC)cc2)[C@H]2c3cc(C(=O)N4CCCC4)n(Cc4ccc(Cl)c(C(F)(F)F)c4)c3C[C@H]2CN1C(=O)c1ccccc1", "z-score": -2.87}
{"MOLECULE": "COC(=O)[C@@]1(Cc2ccc(OC)cc2)[C@H]2c3cc(C(=O)N4CCCC4)n(CCn4cc([N+](=O)[O-])nc4C)c3C[C@H]2CN1C(=O)c1ccccc1", "z-score": 2.02}
{"MOLECULE": "O=C1C2C=CC(C(O)c3ccc([N+](=O)[O-])cc3)N(Nc3ccccc3F)C2C(=O)N1c1ccccc1 (stereo unspecified)", "z-score": -0.101}
{"MOLECULE": "COC(=O)C(CC#Cc1ccc2c(c1)[C@]1(C(=O)N2)[C@H](C(=O)NC[C@H](O)c2ccccc2)[C@H]2C(=O)O[C@H](c3ccccc3)[C@H](c3ccccc3)N2[C@@H]1c1ccccc1OCCO)C(=O)OC", "z-score": 0.0111}
{"MOLECULE": "CC(C)(C)N1CC=CC23O[C@@H]4/C=C\\CCCOC(=O)C4[C@H]2C(=O)N(CCCO)[C@@H]3C1=O (stereo partly specified)", "z-score": 0.502}

====

Molecular target: NADPH oxidase 2 (Homo sapiens)
Assay: compounds shifting NOX2 Amplex Red fluorescence – cell-based, HEK293-NOX2, PMA-stimulated, NOX inhibitor project, primary screen (AID 1159); also: test concentration not given here
Details: 45 min, higher = more signal, called active from +8 up or from −8 down
Reported z-score values follow for various compounds

{"COMPOUND": "CN(C)CCCC[C@@H]1NC(=O)[C@H]2C[C@@H](C(=O)O)[C@@H](c3ccc(O)cc3)N2C1=O", "ASSAY SYSTEM": "NADPH oxidase 2 (Homo sapiens)", "z-score": 0.485}
{"COMPOUND": "NC(=O)N1C(=O)C2C(C1=O)C1C=C(CCCO)C2C(c2ccc(CN3CCCC3)cc2)N1Cc1cc2c(cc1Br)OCO2 (centres undefined)", "ASSAY SYSTEM": "NADPH oxidase 2 (Homo sapiens)", "z-score": -1.07}
{"COMPOUND": "C=C(CCCC)/C(=C/C[C@H](OC(=O)c1ccncc1)c1cccc(OCCO)c1)c1cnc2ccccc2c1", "ASSAY SYSTEM": "NADPH oxidase 2 (Homo sapiens)", "z-score": -0.777}
{"COMPOUND": "O=C1O[C@@H](c2ccccc2)[C@@H](c2ccccc2)N2[C@@H](c3ccc(OCCO)cc3)[C@]3(C(=O)Nc4ccc(C#CC5(O)CCCCCC5)cc43)[C@@H](C(=O)O)[C@H]12", "ASSAY SYSTEM": "NADPH oxidase 2 (Homo sapiens)", "z-score": 2.21}

====

System: Inhibin beta A chain (activin A)
Assay: small molecules binding activin A – biochemical, small-molecule microarray, 635 nm fluorescence scan, primary screen (AID 1107);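 also: mouse activin A protein probed at 4.33 µg/mL on printed slides; score merges bound-protein fluorescence near 667 nm with spot signal-to-noise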
Conditions: INHBA, higher = more signal

{"COMPOUND": "O=C1C[C@@](C(=O)NC2CC2)(c2ccc([N+](=O)[O-])cc2)[C@@H](c2ccc(CO)cc2)N1C1CCCCC1", "composite z-score": 0.357}
{"COMPOUND": "CN1C(=O)C2C(C3CC3)C=C3CN(Cc4cccc(Cl)c4)[C@@H]([C@@H](O)Cc4ccccc4)C3C2C1=O (stereo not given in full)", "composite z-score": -0.262}
{"COMPOUND": "COCCOC(=O)N1C(=O)[C@@]2(c3ccccc31)[C@H](c1ccc(O)cc1)N1[C@H](c3ccccc3)[C@H](c3ccccc3)OC(=O)[C@H]1[C@@H]2C(=O)N1CCCCCCC1", "composite z-score": 1.96}
{"COMPOUND": "CC(C)(C)N1CC=CC23O[C@@H]4/C=C\\CCCOC(=O)C4[C@H]2C(=O)N(CCCCCO)[C@@H]3C1=O (stereo not given in full)", "composite z-score": -1.11}
{"COMPOUND": "CCCc1cc2c(n1CCc1ccc(Cl)cc1)C(C)C1CN(C(=O)c3ccccc3)C(C)(C(=O)OC)C21 (stereo not given)", "composite z-score": 1.24}
{"COMPOUND": "NC(=O)N1C(=O)C2C(C1=O)C1C=C(CCCO)C2C(C2CC2)N1Cc1sc2ccccc2c1Cl (stereo not given)", "composite z-score": 0.303}
{"COMPOUND": "C[C@@H]1ON(c2ccccc2)[C@H](c2ccccc2)[C@H]1C(=O)O", "composite z-score": -0.367}
{"COMPOUND": "O=C1N(CCS(=O)(=O)c2ccccc2)c2ccccc2C[C@]12N=C(c1ccc(OCCCO)cc1)O[C@@H]2c1ccccc1", "composite z-score": 0.865}
{"COMPOUND": "C=C(CCCC)/C(=C/C[C@@H](OC(C)=O)c1ccc(CO)o1)c1cnc2ccccc2c1", "composite z-score": 1.05}
{"COMPOUND": "CCOC(=O)C[C@H]1[C@H](OC(=O)c2ccccc2-c2ccccc2)[C@@H](NC(=O)c2ccc3ccccc3c2)c2cc(OCCCO)ccc2N1C(=O)Cc1ccc(OC)cc1", "composite z-score": 0.892}
{"COMPOUND": "NC(=O)NCC#Cc1ccc2c(c1)[C@]1(C(=O)N2)[C@H](c2ccc(OCCO)cc2)N2[C@H](c3ccccc3)[C@H](c3ccccc3)OC(=O)[C@H]2[C@@H]1C(=O)O", "composite z-score": 0.993}
{"COMPOUND": "O=C1O[C@@H](c2ccccc2)[C@@H](c2ccccc2)N2[C@@H](c3ccccc3OCCO)[C@]3(C(=O)Nc4ccc(C#CCCO)cc43)[C@@H](C(=O)NC[C@H](O)c3ccccc3)[C@H]12", "composite z-score": 1.41}
{"COMPOUND": "O=C1NC(=O)C2C1C=CC(C(O)c1ccc([N+](=O)[O-])cc1)N2Nc1ccccn1 (stereo not given)", "composite z-score": 0.854}
{"COMPOUND": "COC(=O)[C@H](Cc1ccccc1)N1CC2=CCCC=C[C@@H]2[C@H]1[C@H](O)Cc1ccccc1", "composite z-score": 0.702}
{"COMPOUND": "O=C(NC1CC1)[C@@H]1c2ccccc2C(=O)N(Cc2cc(C(F)(F)F)cc(C(F)(F)F)c2)[C@H]1c1ccc(CO)cc1", "composite z-score": -0.547}

// provenance: PubChem BioAssay
